- Tested on: Carrot-1 RNA aptamer
- MEASUREMENT_NOTES: Properties of Carrot-1 RNA aptamer with different fluorophores (spectra, extinction coefficient, quantum yield, activation fold)
- Format: biochemical
- TEST_CONTEXT: fluorophore bound to Carrot-1 RNA aptamer
METRIC: Exmax (nm)

In [3]: df
Out[3]:
                                   compound  result_number
0  CN1C(=O)/C(=C/c2ccc(N(C)CCO)cc2)N=C1/C=C/c1ccc(F)cc1            522
1  CC(C)CN1C(=O)/C(=C/c2cc(F)c(O)c(Br)c2)N=C1/C=C/c1ncc(C#N)cn1            507
2  CN1C(=O)/C(=C/c2ccc(N)cc2)N=C1/C=C/c1ccc(C#N)cc1            527
3  CN1C(=O)/C(=C/c2cc(F)c(O)c(F)c2)N=C1/C=C/c1cccc(O)c1            490
4  CN1C(=O)/C(=C/c2ccc(N(C)CCN)cc2)N=C1/C=C/c1cccc(F)c1            519
5  CN(C)CCN(C)c1ccc(/C=C2N=C(/C=C/c3cccc(F)c3)N(C)C\2=O)cc1            515

* * *

- Tested on: Carrot-1 RNA aptamer
- MEASUREMENT_NOTES: Properties of Carrot-1 RNA aptamer with different fluorophores (spectra, extinction coefficient, quantum yield, activation fold)
- Assay type: biochemical
- TEST_CONTEXT: fluorophore bound to Carrot-1 RNA aptamer
METRIC: Extinction coefficient (M⁻¹ cm⁻¹)

In [3]: df
Out[3]:
                                    compound  result_number
 0  CN1C(=O)/C(=C/c2cc(F)c(O)c(F)c2)N=C1/C=C/c1cccc(O)c1          23000
 1  CN1C(=O)/C(=C/c2ccc(N(C)CCO)cc2)N=C1/C=C/c1cccc(O)c1          32000
 2  CN1C(=O)/C(=C/c2cc(F)c(O)c(F)c2)N=C1/C=C/c1ccccn1          26000
 3  COCCOCCOCCOCCN1C(=O)/C(=C/c2cc(F)c(O)c(I)c2)N=C1/C=C/c1ccc(Cl)cc1          19000
 4  CN1CCc2cc(/C=C3N=C(/C=C/c4ccc(Br)nc4)N(CC(F)(F)F)C\3=O)ccc21          19000
 5  CCN(CC)c1ccc(/C=C2N=C(/C=C/c3ccc(Cl)cc3)N(CC(=O)OC)C\2=O)nc1          18000
 6  COCCOCCOCCOCC(=O)OCCN(C)c1ccc(/C=C2N=C(/C=C/c3ccc(C#N)cc3)N(C)C\2=O)cc1          24000
 7  CN1C(=S)/C(=C/c2cc(F)c(O)c(F)c2)N=C1/C=C/c1ccc(C#N)cc1          22500
 8  CN1C(=O)/C(=C/c2cc(Br)c(O)c(Br)c2)N=C1/C=C/c1ccc(F)cc1          22000
 9  CN1C(=O)/C(=C/c2ccc(N)cc2)N=C1/C=C/c1ccc(C#N)cc1          21000
10  CCCN1C(=S)/C(=C/c2ccc(N(C)C)nc2)N=C1/C=C/c1ccccc1F          21000
11  O=C1/C(=C/c2ccc(O)c(Br)c2)N=C(/C=C/c2cccc(Cl)c2)N1CCO          21000
12  C#CCN1C(=O)/C(=C/c2ccc(O)c(Cl)c2)N=C1/C=C/c1ccc(I)cc1          21000
13  C#CCOCCN(C)c1ccc(/C=C2N=C(/C=C/c3ccc(F)cc3)N(C)C\2=O)cc1          22000
14  CC(C)CN1C(=O)/C(=C/c2cc(F)c(O)c(Br)c2)N=C1/C=C/c1ncc(C#N)cn1          21000
15  CN1C(=S)/C(=C/c2cc(F)c(O)c(F)c2)N=C1/C=C/c1ccc(F)cc1          24000
